meta.source: patent US20210347873A1

# TEST TARGET: T1, biotinylated hBLyS-ECD (human, UniProt Q9Y275 134-285, biotinylated with Biotin-X-X-NHS (molar ratio 7:1); sites not stated)
# T1 construct: also called biotinylated immunogen; biotinylated hBLvS-ECD
# T1 sequence (Q9Y275 134-285): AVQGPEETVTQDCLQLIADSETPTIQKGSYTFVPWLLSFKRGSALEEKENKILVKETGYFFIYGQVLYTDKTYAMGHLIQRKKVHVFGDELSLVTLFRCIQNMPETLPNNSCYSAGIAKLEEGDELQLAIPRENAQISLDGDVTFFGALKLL
# ASSAY INFO: competition ELISA; competitor 8E7D9C7F5
I'd appreciate it if you could supply inhibitory rate (%) values for the items below.
A number alone suffices; assume %.

Query :: Endpoint output: inhibitory rate (%) of 78C11D2D12 (antibody, V domains shown, Mouse hybridoma antibody purified on Protein G) VH: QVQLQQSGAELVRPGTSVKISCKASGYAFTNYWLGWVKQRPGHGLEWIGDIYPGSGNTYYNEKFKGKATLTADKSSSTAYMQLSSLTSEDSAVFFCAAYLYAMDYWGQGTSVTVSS VL: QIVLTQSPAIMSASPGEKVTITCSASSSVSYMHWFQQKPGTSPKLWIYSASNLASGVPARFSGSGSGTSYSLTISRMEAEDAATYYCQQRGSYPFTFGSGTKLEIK . Value?
Result :: 37

Query :: Endpoint output: inhibitory rate (%) of 97A3C2H4 (antibody, V domains shown, Mouse hybridoma antibody purified on Protein G) VH: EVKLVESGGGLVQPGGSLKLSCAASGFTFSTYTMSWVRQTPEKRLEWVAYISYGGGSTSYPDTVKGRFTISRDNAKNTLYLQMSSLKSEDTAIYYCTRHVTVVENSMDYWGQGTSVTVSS VL: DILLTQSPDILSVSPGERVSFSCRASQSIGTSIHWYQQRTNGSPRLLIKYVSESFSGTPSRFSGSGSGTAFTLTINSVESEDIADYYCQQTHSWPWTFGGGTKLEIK . Value?
Result :: 93

Query :: Endpoint output: inhibitory rate (%) of 35E6F7C3 (antibody, V domains shown, Mouse hybridoma antibody purified on Protein G) VH: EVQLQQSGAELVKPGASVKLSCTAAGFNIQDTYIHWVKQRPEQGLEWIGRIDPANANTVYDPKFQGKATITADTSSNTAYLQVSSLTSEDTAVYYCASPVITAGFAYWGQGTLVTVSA VL: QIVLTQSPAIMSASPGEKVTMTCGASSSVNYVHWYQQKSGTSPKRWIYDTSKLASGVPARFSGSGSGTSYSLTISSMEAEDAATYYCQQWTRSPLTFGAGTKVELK . Value?
Result :: 27
